All values here come from patent US20230011571A1.

system: Chikungunya virus (CHIKV); test: microbe, parasite or virus in culture; format: cell-based; conditions: Chikungunya virus, Vero, 48 h, read-out: Percent viral inhibition CHKV
Cut-off 9% on inhibition at 1 µM, inclusive. At or above means met; below means not met.

// known answers, use as guide
CC(=O)NCC1CCN(Cc2cc(Oc3ccc(N4CCN(C(C)CCS(C)(=O)=O)CC4)nc3)nc(-c3cc(Cl)cc(Cl)c3)c2)CC1 (centres unmarked) [Example 16]: not met
CN1CCCN(c2ncc(Oc3cc(CN4CCC(OCC(=O)O)CC4)cc(-c4cc(Cl)cc(Cl)c4)n3)cn2)CC1 [Example 140]: met
CCN1C[C@@H]2C[C@H]1CN2c1ccc(Oc2cc(CN3CCC(CC(=O)O)CC3)cc(-c3cc(Cl)cc(Cl)c3)n2)nn1 [Example 366]: not met
CCN1C[C@@H]2C[C@H]1CN2c1ncc(Oc2cc(CN3CCC(CC(=O)O)CC3)cc(-c3cc(Cl)cc(Cl)c3)n2)cn1 [Example 232]: met
CC(=O)NCC1CCN(Cc2cc(Oc3cnc(N4CCN(CCC(N)=O)CC4)nc3)cc(-c3cc(Cl)cc(Cl)c3)c2)CC1 [Example 170]: not met

Prompt line: Textbook exercise: given the entry CN1CCN(c2ncc(Oc3cc(CN4CCC(CB(O)O)CC4)cc(-c4cc(Cl)cc(Cl)c4)n3)cn2)CC1 [Example 318] , state whether its inhibition at 1 µM is greater than or equal to 9%.
Response line: met

Prompt line: Reported inhibition at 1 µM at or above 9%? CNC(=O)OCC1CCN(Cc2cc(Oc3cnc(N4CCN(C[C@@H](C)O)CC4)nc3)nc(-c3cc(Cl)cc(Cl)c3)c2)CC1 [Example 308]
Response line: not met

Prompt line: Say whether O=C(O)CC1CCN(Cc2cc(Oc3ccc(N4CCNCC4)nc3)nc(-c3cc(Cl)cc(Cl)c3)c2)CC1 [Example 4] shows inhibition at 1 µM of 9% or more.
Response line: met

Prompt line: Could you verify whether the entry O=S(=O)(O)CCC1CCN(Cc2cc(Oc3ccc(N4CCNCC4)nc3)nc(-c3cc(Cl)cc(Cl)c3)c2)CC1 [Example 7] shows inhibition at 1 µM of no less than 9%?
Response line: met

Prompt line: Please indicate if the recorded inhibition at 1 µM for CC(CCN1CCN(c2cnc(Oc3cc(CN4CCC(CCO)CC4)cc(-c4cc(Cl)cc(Cl)c4)n3)cn2)CC1)C(=O)O (centres unmarked) [Example 341] meets or exceeds 9%.
Response line: met

Prompt line: Kindly determine if inhibition at 1 µM recorded for CC(CC1CCN(Cc2cc(Oc3cnc(N4CCNCC4)nc3)nc(-c3cc(Cl)cc(Cl)c3)c2)CC1)C(=O)O (centres unmarked) [Example 269] is above or exactly 9%.
Response line: met

Prompt line: Check this molecule for inhibition at 1 µM at or above 9%: COC(=O)NCC1CCN(Cc2cc(Oc3cnc(N4CCN(C(C)CCC(=O)O)CC4)nc3)nc(-c3cc(Cl)cc(Cl)c3)c2)CC1 (centres unmarked) [Example 222]
Response line: met

Prompt line: In plain terms: is recorded inhibition at 1 µM at least 9% for CN1CCN(c2ncc(Oc3cc(CN4CCC(CCB(O)O)CC4)cc(-c4cc(Cl)cc(Cl)c4)n3)cn2)CC1 [Example 323] ?
Response line: not met

Prompt line: Is the recorded value of inhibition at 1 µM equal to or greater than 9% for this molecule? CC(CCN1CCN(c2ncc(Oc3cc(CN4CCC(CC(=O)O)CC4)cc(-c4cc(Cl)cc(Cl)c4)n3)cn2)CC1)S(C)(=O)=O (centres unmarked) [Example 205]
Response line: met
